Test: binders of probe aFSTL3 on microarray, primary screen, stem cell growth factor project, biochemical, small-molecule microarray, fluorescence 635/667 (AID 1064);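 also: measures binding of the biotinylated anti-FSTL3 antibody to printed compounds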
Details: higher = more signal
measured quantity: composite z-score

| compound | composite z-score |
| --- | --- |
| CCOC(=O)C1=C[C@@H](C(C)(C)C)N(S(=O)(=O)c2ccc(C)cc2)[C@H]1c1ccccc1 | 0.401 |

Q. What value of composite z-score has been reported for the following compound? "O=C(N1CCOCC1)[C@@]1(CCS(=O)(=O)c2ccccc2)N=C(c2ccc(OCCCO)cc2)O[C@H]1c1ccccc1"
A. 0.448

Q. Field request: composite z-score | item: CC(=O)n1cc(C(O)C2C=CC3C(=O)N(c4ccccc4)C(=O)C3N2Nc2ccc(C(C)C)cc2)c2ccccc21 (centres undefined)
A. 0.657

Q. Quick check: composite z-score of O=C1C2C=CC(C(O)c3ccc(I)cc3)N(Nc3ccccc3)C2C(=O)N1c1ccccc1 (centres undefined) ?
A. 0.996

Q. Name the reported composite z-score value associated with the compound "COCCCNC(=O)[C@@]1(Sc2ccc(C)cc2)CC(=O)N(C(C)C)[C@@H]1c1ccc(CO)cc1I"
A. 0.438

Q. GET /values?readout=composite z-score&item= "C=C[C@@H](C)[C@H](O)c1ccc(OCCO)cc1"
A. 0.684

###

Measured composite z-score, listed per entry.
Target: Torsin-1A-interacting protein 1 (Homo sapiens)
Assay: LAP1 binders from COS7 cell lysate, primary screen, small-molecule microarray, 635/667 nm fluorescence (AID 1116)
Details: COS7-hLAP1 lysate binding, 635 nm fluorescence, higher = more signal
Provide a numeric answer; units are not to be included.

| compound | composite z-score |
| --- | --- |
| Cc1nc2cc(Br)ccc2c(=O)n1Cc1cccc(O)c1 | 1.21 |
| C=CCC(OC(C)=O)[C@@H]1[C@@H](N(Cc2cccc3ccccc23)C(=O)Cc2ccc(F)cc2)c2cc(OCCCO)ccc2N1C(=O)c1ccc(-c2ccccc2)cc1 (some centres undefined) | 0.171 |
| C=CCNC(=O)[C@@H]1[C@H]2C(=O)O[C@H](c3ccccc3)[C@H](c3ccccc3)N2[C@H](c2ccc(O)cc2)[C@@]12C(=O)N(C(=O)OCCOC)c1ccc(C#CCCO)cc12 | 0.394 |

Now for a further compound.
Q. I'd like to know its composite z-score. The compound in question is "NC(=O)[C@H]1[C@@H]2C(=O)O[C@@H](c3ccccc3)[C@@H](c3ccccc3)N2[C@@H](c2ccc(O)cc2)[C@]12C(=O)Nc1ccc(C#CC3=CCCCC3)cc12"
A. 0.731

###

Experiment: E. coli growth modulation, two-sided OD650, primary screen, E. coli filamentation project, strain DRC41, 24 h (AID 1093);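 also: MC1000 strain lacking acrAB efflux and sulA so SOS filamentation is blocked; test concentration not given here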
Conditions: OD650, 24 h, higher = more signal, called active from +8 up or from −8 down
Calls of active or inactive are those of the source.
measured quantity: z-score

Q. // returns reported z-score for input "CC(C)C[C@@H]1NC(=O)[C@H]2C[C@@H](C(=O)NCCCCCN)[C@@H](c3cccc(OCCO)c3)N2C1=O"
A. 0.545 (inactive)

Q. Fill in the blank: the reported z-score of "COc1ccc(C(=O)Nc2cccc(CN3C(=O)[C@@]4(O[C@@H](CC(=O)N(CCO)Cc5ccccc5)[C@H]([Si](C)(C)c5ccc(OC)cc5)[C@H]4C)c4ccccc43)c2)cc1" is ____.
A. 0.904 (inactive)

Q. Data request, read-out z-score, for "CCc1cccc(NC(=O)O[C@H]2[C@H](OC(=O)Nc3ccccc3)[C@H](OC(=O)Nc3ccccc3)[C@@H](OC)O[C@@H]2CO)c1"
A. -0.728 (inactive)

###

The following compounds are listed with their measured composite z-score values.
Assay: small-molecule microarray binders of probe aEGFR, primary screen, biochemical, biotinylated probe, 635/667 nm fluorescence (AID 1097);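 also: probe is a biotinylated anti-EGFR antibody binding compounds printed on slides; score combines fluorescence near 667 nm and signal to noise of each spot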
Settings: higher = more signal
Hey, just send me the number, nothing else.

| compound | composite z-score |
| --- | --- |
| C=CCC(OC(C)=O)[C@@H]1[C@@H](N(Cc2ccc(-c3ccccc3)cc2)C(=O)c2ccc(C)cc2)c2cc(OCCCO)ccc2N1C(=O)Cc1ccc2ccccc2c1 (stereo not given in full) | -0.126 |
| Cc1ccc(S[C@]2(C(=O)NC(C)C)CC(=O)N(C(C)C)[C@@H]2c2ccc(CO)cc2I)cc1 | -0.144 |
| COCCCNC(=O)[C@@H]1c2ccccc2C(=O)N(C2Cc3ccccc3C2)[C@H]1c1ccc(CO)cc1 | -0.0549 |
| C=C(CCCC)/C(=C/C[C@H](OC(C)=O)c1ccc(OCCO)cc1)c1cc(C(=O)OC)ccc1OC | -0.115 |
| COCCOC(=O)N1C(=O)[C@@]2(c3cc(C#CC4=CCCCC4)ccc31)[C@H](C(=O)N1CCCCCCC1)[C@H]1C(=O)O[C@H](c3ccccc3)[C@H](c3ccccc3)N1[C@@H]2c1ccc(OCCO)cc1 | 0.265 |
| COc1cc(NN2C(C(O)c3ccccc3)C=CC3C(=O)N(C)C(=O)C32)cc(OC)c1OC (stereo not given) | -0.0581 |

Q. composite z-score lookup needed for COc1cc2c(cc1O)C(c1cccs1)N(Cc1sc3ccccc3c1Cl)CC2 (stereo not given) , thanks.
A. 0.14

Q. Value lookup for composite z-score; key = "[N-]=[N+]=NCc1ccccc1[C@H]1OC(c2ccc(OCCCO)cc2)=N[C@@]1(Cc1ccccc1)C(=O)NCCN1CCOCC1"
A. -0.0329

Q. Recorded composite z-score for CC(C)[C@H]1NC(=O)[C@@]23C(=O)N[C@@H](Cc4ccccc4)C2[C@H](C)[C@@]2(C)O[C@H]2C3/C=C/C/C=C\CNC(=O)[C@H](Cc2ccccc2)NC1=O (stereo not given in full) , please?
A. 0.0354

Q. I have this compound here, "[N-]=[N+]=NCc1ccccc1[C@@H]1OC(c2ccc(OCCCO)cc2)=N[C@]1(Cc1ccccc1N=[N+]=[N-])C(=O)N1CCCCC1" , and I need its recorded composite z-score.
A. 0.706

Q. Please report the recorded composite z-score for "[N-]=[N+]=NCc1ccccc1[C@H]1OC(c2ccc(OCCCO)cc2)=N[C@@]1(CCS(=O)(=O)c1ccccc1)C(=O)NCc1ccccc1" .
A. 0.706

Q. GET /values?readout=composite z-score&item= "CCCNC(=O)[C@@]1(Sc2ccc(C)cc2)CC(=O)N(C2CCCCC2)[C@@H]1c1ccc(CO)cc1I"
A. -0.0643

Q. What measured composite z-score goes with CC(=O)N1CC(C(O)C2C=CC3C(=O)NC(=O)C3N2Nc2ccc(Cl)cc2Cl)c2ccccc21 (stereo not given) ?
A. -0.0594

Q. Param item = "CCCCC=C[C@@H](NC(=O)c1ccccc1)c1ccccc1" ; retrieve measured composite z-score.
A. 0.0488

Q. Entry under review: COc1ccc(C(O)C2C=CC3C(=O)N(c4ccccc4)C(=O)C3N2Nc2ccccc2)cc1 (stereo not given) . Reported composite z-score?
A. -0.0382

###

Test: E. coli growth modulation, two-sided OD650, primary screen, E. coli filamentation project, strain DRC41, 24 h (AID 1093);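 also: MC1000 strain lacking acrAB efflux and sulA so SOS filamentation is blocked; test concentration not given here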
Settings: OD650, 24 h, higher = more signal, called active from +8 up or from −8 down
Met means recorded z-score is 0.3 or above; Not met means it is below 0.3.

| compound | answer label |
| --- | --- |
| O=C1OCC=C[C@H]2OC34C=CCN(c5ccc6ccccc6c5)C(=O)[C@H]3N(CCCCCO)C(=O)[C@@H]4[C@@H]12 (some centres not stated) | Not met |
| C=C[C@H](C)[C@H](OC(=O)Nc1ccc(OC)cc1)c1ccc(OCCO)cc1 | Met |
| CCCCC(=C=CC[C@H](O)c1ccc(OCCO)cc1)C[C@H](O)COCc1ccccc1 | Not met |
| CC(=O)NCCCC[C@@H]1NC(=O)[C@@H]2C[C@H](C(=O)NCCCCCCN)[C@H](c3cccc(OCCO)c3)N2C1=O | Not met |
| O=C1OCCC=C[C@H]2OC34C=CCN(c5ccc(Cl)cc5)C(=O)[C@H]3N(CCCCCCO)C(=O)[C@@H]4C12 (some centres not stated) | Met |
| CO[C@H]1O[C@H](CO)[C@@H](OC(=O)Nc2ccc(C#N)cc2)[C@@H]2OC(=O)[C@H](Cc3cccc(Br)c3)C/C=C/C[C@@H](Cc3cccc(Br)c3)C(=O)O[C@@H]12 | Not met |

Now take the following compound into account.
Q. Is the recorded value of z-score equal to or greater than 0.3 for this compound? CC(C)[C@H]1NC(=O)[C@@]23C(=O)N[C@@H](Cc4ccccc4)C2[C@H](C)[C@@]2(C)O[C@H]2C3/C=C/C/C=C\CNC(=O)[C@H](Cc2ccccc2)NC1=O (some centres not stated)
A. Met

###

Tested on: Sam68 (KHDRBS1)
Assay: Sam68 small-molecule binders, primary screen, biochemical, small-molecule microarray, 635 nm fluorescence (AID 1125);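 also: score merges 667 nm channel intensity with signal to noise over triplicate slides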
Conditions: small-molecule microarray binding, higher = more signal
measured quantity: composite z-score
Number only, please.

| compound | measured quantity | observed |
| --- | --- | --- |
| C=C(COC)C(=O)CC[C@@H](OC(=O)c1cccnc1)c1ccccc1OCCO | composite z-score | -0.356 |
| CCCNC(=O)[C@@]1(C)c2ccccc2C(=O)N(Cc2ccccc2)[C@H]1c1ccc(CO)cc1 | composite z-score | 0.526 |
| CN1C(=O)C2C(C1=O)C1C=C(CCCO)C2C(c2cccs2)N1Cc1cc2c(cc1Br)OCO2 (centres undefined) | composite z-score | 1.3 |

Now for the compound whose composite z-score we want.
Q. What measured composite z-score goes with "COCCOC(=O)N1C(=O)[C@@]2(c3ccccc31)[C@H](c1ccccc1OCCO)N1[C@H](c3ccccc3)[C@H](c3ccccc3)OC(=O)[C@H]1[C@@H]2C(=O)N1CCCCCCC1" ?
A. 1.29
